Ref: patent US20090253709A1

System: U251
experimental_details: In vitro cytotoxicity, Development Therapeutics Program
Type: cell-based
condition_label: U251, CNS cancer; 1.0×10^−5 M
measured_attribute: Cellular growth rate (%)
Answers are plain numbers, in %.

Examples with answers:
# smiles_data, tgt, Cellular growth rate (%)
rows = [
    ("O=C(CCN1CCCC1)Nc1ccc2c(c1)C(=O)c1cc(NC(=O)CCN3CCCC3)ccc1C2=O", "U251", 18.16),
    ("O=C1c2ccc(NC(=O)C3CC3)cc2C(=O)c2cc(NC(=O)C3CC3)ccc21", "U251", 72.62),
    ("CC(=O)Nc1ccc2c(c1)C(=O)c1cc(NC(C)=O)ccc1C2=O", "U251", 95.14),
]

Could you report Cellular growth rate (%) for every entry in the following list?
1. CN(C)CC(=O)Nc1ccc2c(c1)C(=O)c1cc(NC(=O)CN(C)C)ccc1C2=O
2. CCN(CC)CCC(=O)Nc1ccc2c(c1)C(=O)c1cc(NC(=O)CCN(CC)CC)ccc1C2=O

Result:
1: 16.26; 2: 21.65
